Each item that follows carries a reported GI50.
- System: A549 NSCLC
- PROTOCOL NOTES: NCI tumour cell line growth inhibition, 48 h
OBSERVABLE: GI50

[[record]]
compound = "N#CCCN(CCC#N)c1ccc(C(Sc2ccccc2)C(NC(=O)c2cc([N+](=O)[O-])ccc2Cl)C(=O)Sc2ccccc2)cc1 (stereo not given)"
assay_system = "A549 NSCLC"
observable = "GI50"
measured = "0.954 µM"

[[record]]
compound = "COc1cc(-c2cn(-c3ccc(Cl)c(Cl)c3)c(=O)n2C(C)=O)cc(OC)c1OC"
assay_system = "A549 NSCLC"
observable = "GI50"
measured = "15 µM"

[[record]]
compound = "OCCNc1ncnc2c1ncn2Cc1cccc(COc2cccc(OCc3cccc(Cn4cnc5c(NCCO)ncnc54)c3)c2)c1"
assay_system = "A549 NSCLC"
observable = "GI50"
measured = "24.9 µM"

[[record]]
compound = "COc1ccc2c(c1)/C(=C\\c1c(Cl)[nH]c3ccc(OC)cc13)C(=O)N2"
assay_system = "A549 NSCLC"
observable = "GI50"
measured = "65.1 µM"

[[record]]
compound = "COc1cc(/C=C2\\C(=O)Nc3ccc(N(C)C)cc32)cc(OC)c1OC"
assay_system = "A549 NSCLC"
observable = "GI50"
measured = "3.86 µM"


====

- Test system: M14 melanoma
- PROTOCOL NOTES: NCI tumour cell line growth inhibition, 48 h
OBSERVABLE: TGI

[[record]]
compound = "COC1OC(CO)C(O)C1N (stereo not given)"
observable = "TGI"
measured = "> 100 µM"

[[record]]
compound = "C/C(Cl)=N\\OC(=O)Nc1ccc(C)cc1"
observable = "TGI"
measured = "30.9 µM"

[[record]]
compound = "C=C1C(OC2O[C@@H]3O[C@@]4(C)CC[C@H]5[C@H](C)CC[C@@H](C2=C)[C@@]35O4)O[C@@H]2O[C@@]3(C)CC[C@H]4[C@H](C)CC[C@@H]1[C@@]24O3 (stereo not given in full)"
observable = "TGI"
measured = "> 50 µM"

[[record]]
compound = "CC1=NN(c2nc(N)nc(-c3sccc3N)n2)C(C)(C)C1"
observable = "TGI"
measured = "> 100 µM"

[[record]]
compound = "Cc1cc2c(cc1Cl)SC1=NN(C)C(N(C)C)N1S2(=O)=O (stereo not given)"
observable = "TGI"
measured = "> 100 µM"

[[record]]
compound = "CCOP(=O)(OCC)OC(C#N)c1ccc(-c2ccccc2)cc1 (stereo not given)"
observable = "TGI"
measured = "33.3 µM"

[[record]]
compound = "COc1ccc(-c2oc3c(OC)c(OC)c(OC)c(OC)c3c(=O)c2OC)cc1OC"
observable = "TGI"
measured = "> 100 µM"

[[record]]
compound = "COC(=O)C1=C(C(=O)OC)SC(=CC#CC=C2SC(C(=O)OC)=C(C(=O)OC)S2)S1"
observable = "TGI"
measured = "> 76.2 µM"

[[record]]
compound = "COC(=O)C(CC(=O)Nc1ccc(C)cc1)C(=O)C(=O)Nc1ccccc1C(C)C (stereo not given)"
observable = "TGI"
measured = "> 100 µM"

[[record]]
compound = "CCC[n+]1cc2cc(OC)c(OC)cc2c2c1-c1cc3c(cc1C2)OCO3"
observable = "TGI"
measured = "22 µM"


Reference for the values: PubChem BioAssay (NCI)
